The origin of these recorded values is patent US20250115677A1.

- experimental system: T1, human CEA on cells (MKN45, LOVO, NCI-H2122, LS174T, CT26/CEA) (human, UniProt P06731 35-685)
- T1 construct: Full-length human CEA, endogenous on tumour cell lines or transduced; also called native CEA on living cells; huCEA surface protein
- T1 sequence: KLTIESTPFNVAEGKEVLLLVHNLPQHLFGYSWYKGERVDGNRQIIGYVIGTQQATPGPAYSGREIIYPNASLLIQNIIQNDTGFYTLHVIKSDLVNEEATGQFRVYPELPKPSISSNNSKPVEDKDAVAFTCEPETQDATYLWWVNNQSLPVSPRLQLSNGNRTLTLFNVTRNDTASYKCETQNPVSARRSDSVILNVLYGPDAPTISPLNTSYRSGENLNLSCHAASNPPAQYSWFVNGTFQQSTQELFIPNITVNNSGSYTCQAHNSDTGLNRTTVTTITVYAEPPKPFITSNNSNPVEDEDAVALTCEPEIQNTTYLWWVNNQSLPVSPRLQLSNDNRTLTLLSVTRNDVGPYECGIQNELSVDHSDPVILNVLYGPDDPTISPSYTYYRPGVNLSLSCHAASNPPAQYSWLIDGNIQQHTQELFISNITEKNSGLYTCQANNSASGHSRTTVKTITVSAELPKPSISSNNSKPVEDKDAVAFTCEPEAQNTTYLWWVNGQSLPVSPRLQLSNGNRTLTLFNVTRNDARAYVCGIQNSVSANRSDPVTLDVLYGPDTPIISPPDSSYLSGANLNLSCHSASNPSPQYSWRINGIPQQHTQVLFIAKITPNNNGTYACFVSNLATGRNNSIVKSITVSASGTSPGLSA
- test details: flow cytometry on MKN45 cells
property name: EC50 (µg/mL)
One number for each entry, in µg/mL.

binder: BGA6710 variant Y57D (antibody, V domains shown, IgG format; change in the heavy chain) VH: QVQLVQSGAEVKKPGASVKVSCKASGYIFTSYYLHWVRQAPGQGLEWIGYINPQTGDTSYAQKFQGRVTMTRDTSTSTVYMELSSLRSEDTAVYYCAREYGNYNYPLDYWGQGTLVTVSS VL: DIQMTQSPSSLSASVGDRVTITCRASENQYGYLAWYQQKPGKVPKLLIYNYKNLVEGVPSRFSGSGSGTDFTLTISSLQPEDVATYYCQHHLGTPYTFGQGTKVEIK
unit tag: µg/mL
EC50: 0.56
//
binder: BGA6710 variant Q54E, Y57K (antibody, V domains shown, IgG format; both changes in the heavy chain) VH: QVQLVQSGAEVKKPGASVKVSCKASGYIFTSYYLHWVRQAPGQGLEWIGYINPETGKTSYAQKFQGRVTMTRDTSTSTVYMELSSLRSEDTAVYYCAREYGNYNYPLDYWGQGTLVTVSS VL: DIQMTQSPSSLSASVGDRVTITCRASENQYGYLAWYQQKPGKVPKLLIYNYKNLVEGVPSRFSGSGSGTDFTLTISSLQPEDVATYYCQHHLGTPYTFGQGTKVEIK
unit tag: µg/mL
EC50: 0.58
//
binder: BGA6710 (antibody, human IgG1, V domains shown, BGA2433 with W33Y (VH) and T51Y (VL); wild-type human IgG1 format) VH: QVQLVQSGAEVKKPGASVKVSCKASGYIFTSYYLHWVRQAPGQGLEWIGYINPQTGYTSYAQKFQGRVTMTRDTSTSTVYMELSSLRSEDTAVYYCAREYGNYNYPLDYWGQGTLVTVSS VL: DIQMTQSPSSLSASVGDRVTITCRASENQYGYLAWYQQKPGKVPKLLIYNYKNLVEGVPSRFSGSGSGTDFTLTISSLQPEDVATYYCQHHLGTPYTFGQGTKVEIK
unit tag: µg/mL
EC50: 0.49
//
binder: BGA6710 variant L92E, Y57K (antibody, V domains shown, IgG format) VH: QVQLVQSGAEVKKPGASVKVSCKASGYIFTSYYLHWVRQAPGQGLEWIGYINPQTGKTSYAQKFQGRVTMTRDTSTSTVYMELSSLRSEDTAVYYCAREYGNYNYPLDYWGQGTLVTVSS VL: DIQMTQSPSSLSASVGDRVTITCRASENQYGYLAWYQQKPGKVPKLLIYNYKNLVEGVPSRFSGSGSGTDFTLTISSLQPEDVATYYCQHHEGTPYTFGQGTKVEIK
unit tag: µg/mL
EC50: 1.09
//
binder: BGA6710 variant Q54E, Y57E (antibody, V domains shown, IgG format; both changes in the heavy chain) VH: QVQLVQSGAEVKKPGASVKVSCKASGYIFTSYYLHWVRQAPGQGLEWIGYINPETGETSYAQKFQGRVTMTRDTSTSTVYMELSSLRSEDTAVYYCAREYGNYNYPLDYWGQGTLVTVSS VL: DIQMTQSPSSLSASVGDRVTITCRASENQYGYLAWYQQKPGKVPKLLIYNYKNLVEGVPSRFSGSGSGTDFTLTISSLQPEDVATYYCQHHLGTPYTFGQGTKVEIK
unit tag: µg/mL
EC50: 0.65

Next:
Query: Check the records and state EC50 for BGA6710 variant L92E (antibody, V domains shown, IgG format; L92E in the light chain) VH: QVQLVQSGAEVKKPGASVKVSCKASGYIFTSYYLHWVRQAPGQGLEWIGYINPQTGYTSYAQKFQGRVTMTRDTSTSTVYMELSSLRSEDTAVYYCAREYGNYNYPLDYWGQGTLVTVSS VL: DIQMTQSPSSLSASVGDRVTITCRASENQYGYLAWYQQKPGKVPKLLIYNYKNLVEGVPSRFSGSGSGTDFTLTISSLQPEDVATYYCQHHEGTPYTFGQGTKVEIK
Response: 1.19
